The values you see were collected from PubChem BioAssay (NCATS).

# target of assay: Glucocorticoid receptor (Homo sapiens)
# experiment summary: GR-GFP Redistribution (AID 450); further: potency means the concentration at half of the fitted maximal effect
# test settings: U2OS GR-GFP nuclear translocation, laser cytometry, 2 h
Active and inactive are the calls of the source.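 How the source made its calls: active means compounds whose dose series gives a full or clear partial fitted curve of increased nuclear translocation; inconclusive means weak partial curve or effect only at the top dose; inactive means no dose-dependent translocation response.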
Entries and their Potency
measure name: Potency

- given smiles: "CN1CCN(c2ccnc(-c3cccc(NS(C)(=O)=O)c3)n2)CC1"
  target of assay: "Glucocorticoid receptor (Homo sapiens)"
  meas value: "> 46 µM (inactive)"
- given smiles: "CN1CCN(c2ncc3nc(-c4cccc(C#N)c4)c(=O)n(C)c3n2)CC1"
  target of assay: "Glucocorticoid receptor (Homo sapiens)"
  meas value: "> 9.22 µM (inactive)"
- given smiles: "COCCn1c(=O)c(-c2cccs2)nc2cnc(Nc3ccccc3)nc21"
  target of assay: "Glucocorticoid receptor (Homo sapiens)"
  meas value: "> 9.22 µM (inactive)"
- given smiles: "COc1cccc(Nc2ncc3ncc(=O)n(C[C@H]4CCCO4)c3n2)c1"
  target of assay: "Glucocorticoid receptor (Homo sapiens)"
  meas value: "> 9.22 µM (inactive)"
- given smiles: "Cc1nc2cnc(Nc3ccccc3)nc2n(C[C@H]2CCCO2)c1=O"
  target of assay: "Glucocorticoid receptor (Homo sapiens)"
  meas value: "> 9.22 µM (inactive)"
- given smiles: "Cc1cnc(CNc2ccnc(-c3ccccc3C)n2)cn1"
  target of assay: "Glucocorticoid receptor (Homo sapiens)"
  meas value: "> 46 µM (inactive)"
- given smiles: "CCNc1ncc2nc(-c3ccc(Cl)cc3)c(=O)n(-c3ccc(OC)cc3)c2n1"
  target of assay: "Glucocorticoid receptor (Homo sapiens)"
  meas value: "> 9.22 µM (inactive)"
- given smiles: "Cc1ccccc1-c1cc(-n2ccnc2)ncn1"
  target of assay: "Glucocorticoid receptor (Homo sapiens)"
  meas value: "> 46 µM (inactive)"
- given smiles: "CN(C)c1ccc(-c2cncnc2N(C)Cc2ccco2)cc1"
  target of assay: "Glucocorticoid receptor (Homo sapiens)"
  meas value: "> 46 µM (inactive)"
- given smiles: "CN(C)c1ncnc2ccc(-c3ccccc3C(F)(F)F)cc12"
  target of assay: "Glucocorticoid receptor (Homo sapiens)"
  meas value: "> 46 µM (inactive)"
- given smiles: "COc1ncc2nc(-c3cn(C)c4ccccc34)c(=O)n(C)c2n1"
  target of assay: "Glucocorticoid receptor (Homo sapiens)"
  meas value: "> 9.22 µM (inactive)"
- given smiles: "Cc1noc(C)c1-c1nc(NCc2cccs2)c2ccccc2n1"
  target of assay: "Glucocorticoid receptor (Homo sapiens)"
  meas value: "> 46 µM (inactive)"
- given smiles: "Cc1noc(C)c1-c1nccc(N(C)Cc2ccco2)n1"
  target of assay: "Glucocorticoid receptor (Homo sapiens)"
  meas value: "> 46 µM (inactive)"

====

# target of assay: Dual specificity protein kinase CLK4 (Homo sapiens)
# experiment summary: qHTS Assay for Inhibitors of CDC-like Kinase 4 (ADP-Glo Assay) (AID 1771); further: nearly all actives have a fitted effect of over 70% in size; further: potency means the concentration at half of the fitted maximal effect
# test settings: recombinant CLK4, ADP-Glo luminescence; series mostly up to 80 µM
Inconclusive results are not listed. Calls of active or inactive are those of the source. Calls follow the shape of the dose curve; as a rule, active = well fitted inhibition curve with a large enough effect; inconclusive = small, poorly fitted or top-dose-only effect; inactive = flat fitted curve, though single readings scatter.

- given smiles: "COc1ccccc1CNc1nc(-c2cccnc2)nc2ccccc12"
  Potency: "10 µM (active)"
- given smiles: "c1ccc(CNc2ncncc2-c2ccc3c(c2)OCO3)cc1"
  Potency: "7.08 µM (active)"
- given smiles: "COc1ccc(CNc2nc(-c3cccc(C#N)c3)nc3ccccc23)c(OC)c1"
  Potency: "inactive"
- given smiles: "COCCn1c(=O)c(-c2ccc(OC)cc2)nc2cnc(N3CCN(C)CC3)nc21"
  Potency: "inactive"
- given smiles: "N#CCCn1c(=O)c(CCc2ccccc2)nc2cnc(Nc3ccccc3)nc21"
  Potency: "inactive"
- given smiles: "Cn1cc(-c2nc3cnc(Oc4cccc(Cl)c4)nc3n(C3CC3)c2=O)c2ccccc21"
  Potency: "inactive"
- given smiles: "Cc1cnc(CNc2ncnc3ccc(-c4ccc5c(c4)OCO5)cc23)cn1"
  Potency: "0.398 µM (active)"
- given smiles: "CC(=O)NCCNc1ncncc1-c1ccccc1CN(C)C"
  Potency: "inactive"
- given smiles: "COc1cccc(-c2nccc(NCc3ccccc3)n2)c1"
  Potency: "15.8 µM (active)"

====

# Tested on: 7G8
# experiment summary: qHTS profiling for inhibitors of Plasmodium falciparum proliferation (AID 504749); further: nearly all actives have a fitted effect of over 60% in size
# test settings: P. falciparum in erythrocytes, SYBR Green DNA, 72 h; series mostly up to 12.8 µM
Results filed as inconclusive are left out. Active and inactive are the calls of the source. Calls follow the shape of the dose curve; as a rule, active = well fitted inhibition curve with a large enough effect; inconclusive = small, poorly fitted or top-dose-only effect; inactive = flat fitted curve, though single readings scatter.
Outcome codes: active, inactive

- given smiles: "COc1ccc(C[C@@H]2c3cc(OC)c(OC)cc3CC[N@+]2(C)CCC(=O)OCCCCCOC(=O)CC[N@@+]2(C)CCc3cc(OC)c(OC)cc3[C@H]2Cc2ccc(OC)c(OC)c2)cc1OC"
  target of assay: "7G8"
  class label: "inactive"
- given smiles: "C[C@@H]1c2cccc(O)c2C(O)=C2C(=O)[C@@]3(O)C(O)=C(C(N)=O)C(=O)[C@@H](N(C)C)[C@@H]3[C@@H](O)[C@@H]21"
  target of assay: "7G8"
  class label: "active"
- given smiles: "CO[C@]1(NC(=O)CSCC#N)C(=O)N2C(C(=O)O)=C(CSc3nnnn3C)CS[C@H]21"
  target of assay: "7G8"
  class label: "inactive"
- given smiles: "CN[C@@H](CC(C)C)C(=O)N[C@@H]1C(=O)N[C@H](CC(N)=O)C(=O)N[C@@H]2C(=O)N[C@H]3C(=O)N[C@H](C(=O)N[C@H](C(=O)O)c4cc(O)cc(O)c4-c4cc3ccc4O)[C@H](O)c3ccc(c(Cl)c3)Oc3cc2cc(c3O[C@H]2O[C@@H](CO)[C@@H](O)[C@@H](O)[C@@H]2O[C@@H]2C[C@](C)(N)[C@H](O)[C@H](C)O2)Oc2ccc(cc2Cl)[C@@H]1O"
  target of assay: "7G8"
  class label: "inactive"
- given smiles: "NC(=O)OC[C@H](O)COc1ccc(Cl)cc1"
  target of assay: "7G8"
  class label: "inactive"
- given smiles: "C[C@@H](C(=O)O)c1ccc(C(=O)c2cccs2)cc1"
  target of assay: "7G8"
  class label: "inactive"
- given smiles: "CCN[C@@H]1C[C@H](C)S(=O)(=O)c2sc(S(N)(=O)=O)cc21"
  target of assay: "7G8"
  class label: "inactive"
- given smiles: "C[C@@H]1CCC[C@H](C)N1NC(=O)c1ccc(Cl)c(S(N)(=O)=O)c1"
  target of assay: "7G8"
  class label: "inactive"
- given smiles: "O=c1[nH]c(=O)n([C@@H]2C[C@H](O)[C@H](CO)O2)cc1I"
  target of assay: "7G8"
  class label: "inactive"
- given smiles: "CC(C)NC[C@H](O)c1cc(O)cc(O)c1"
  target of assay: "7G8"
  class label: "inactive"

====

Entries and their activity change, negative = inhibition
# experiment summary: qHTS Assay for Lipid Storage Modulators (AID 1519); further: on the % scale 0 is the no-effect control and ±100 the full control effect
# test settings: Drosophila S3 cells, BODIPY lipid droplet/cell ratio, laser cytometry; at 57.5 µM (top of the series); cells loaded with oleic acid
Records with an inconclusive call do not appear.

- compound: "COc1ccc(NC(=O)N2CCCC3(CCN(C(C)=O)CC3)C2)cc1"
  activity change, negative = inhibition / %: 5.88
- compound: "COc1ncc2nc(-c3ccc(Cl)cc3)c(=O)n(-c3ccccc3)c2n1"
  activity change, negative = inhibition / %: -0.888
- compound: "COc1cccc(-c2cc(NCc3cccc(C)c3)ncn2)c1"
  activity change, negative = inhibition / %: -15.5
- compound: "CN(C)C(=O)c1ccc(-c2ccc3ncnc(NC4CCNCC4)c3c2)cc1"
  activity change, negative = inhibition / %: 6.36
- compound: "Cc1cccc(CNc2cc(-c3cccnc3)ncn2)c1"
  activity change, negative = inhibition / %: -14.1
- compound: "O=C(c1cc(C(F)(F)F)cc(C(F)(F)F)c1)N1CCC2(CCCN(c3ccccc3)C2)CC1"
  activity change, negative = inhibition / %: -18.4
- compound: "COCCn1c(=O)c(-c2cccs2)nc2cnc(N3CCN(C)CC3)nc21"
  activity change, negative = inhibition / %: 1.3
- compound: "COc1cccc(-c2nc(NC3CCNCC3)c3ccccc3n2)c1"
  activity change, negative = inhibition / %: 4.76
- compound: "CC(=O)N1CCC2(CCCN(c3ccncc3)C2)CC1"
  activity change, negative = inhibition / %: 4.08
- compound: "COCC(=O)N1CCC2(CCN(Cc3ccccc3)CC2)CC1"
  activity change, negative = inhibition / %: 1.52
- compound: "Cc1noc(C)c1C(=O)N1CCC2(CCN(Cc3ccncc3)CC2)CC1"
  activity change, negative = inhibition / %: 4.47
- compound: "O=C(O)c1cc(=O)c2cccc(O)c2[nH]1"
  activity change, negative = inhibition / %: 14.6
- compound: "Cc1ccccc1-c1cncnc1NC1CCNCC1"
  activity change, negative = inhibition / %: 3.19
- compound: "COc1cc2ccc(=O)oc2cc1O"
  activity change, negative = inhibition / %: 6.76
- compound: "O=S(=O)(c1ccccc1)N1CCC2(CCN(Cc3nccs3)CC2)CC1"
  activity change, negative = inhibition / %: 0.281
- compound: "COc1ccc(-c2nc3cnc(OC)nc3n(C[C@H]3CCCO3)c2=O)cc1"
  activity change, negative = inhibition / %: 0.324
- compound: "O=C(c1cccc(F)c1)N1CCC2(CCN(Cc3nccs3)CC2)CC1"
  activity change, negative = inhibition / %: 6.34
- compound: "CC(C)NC(=O)N1CC2(CCN(C(=O)c3cccn3C)CC2)C1"
  activity change, negative = inhibition / %: 2.27
- compound: "CS(=O)(=O)N1CCC2(CCN(c3ccccn3)CC2)CC1"
  activity change, negative = inhibition / %: 6.49
- compound: "CN1CCc2c(cc(O)c(O)c2Cl)C(c2cccc(Cl)c2)C1 (stereo unspecified)"
  activity change, negative = inhibition / %: -5.99
- compound: "CN(Cc1ccco1)c1ncnc2ccc(-c3ccc4c(c3)OCO4)cc12"
  activity change, negative = inhibition / %: 2.26
- compound: "Cn1cccc1C(=O)N1CCC2(CCCN(C(=O)Nc3cccc(F)c3)C2)CC1"
  activity change, negative = inhibition / %: 5.97
- compound: "O=S(=O)(c1ccccc1)N1CCC[C@@]2(CCN(Cc3nccs3)C2)C1"
  activity change, negative = inhibition / %: 0.281
- compound: "CN1CCN(c2ncc3nc(-c4cn(C)c5ccccc45)c(=O)n(C)c3n2)CC1"
  activity change, negative = inhibition / %: 2.17
- compound: "COc1ccc(Oc2ncc3nc(-c4ccc(OC)cc4)c(=O)n(CCC#N)c3n2)cc1"
  activity change, negative = inhibition / %: -1.07
- compound: "CN1C(CC(=O)c2ccccc2)CCCC1CC(O)c1ccccc1 (stereo unspecified)"
  activity change, negative = inhibition / %: -2.13
